test: In vivo pharmacokinetics in SD rats; details: male, SD, po; rat plasma, intragastric administration, 20 mg/kg
property label: AUC (ng·h/mL)
Numbers only, in ng·h/mL.

Q: Endpoint output: AUC of `COc1ncc(-c2ccc3nccc(-c4ccc(CN(C)C)cc4)c3c2)cc1NS(=O)(=O)c1ccc(F)cc1F` . Value?
A: 35600

###

Field: IC50. Provide a value for each of the compounds that follow.
target: PI3K delta (Homo sapiens, UniProt O00329); assay: Kinase-Glo Luminescent Kinase Assay, PI3K delta
Sequence (O00329 whole entry): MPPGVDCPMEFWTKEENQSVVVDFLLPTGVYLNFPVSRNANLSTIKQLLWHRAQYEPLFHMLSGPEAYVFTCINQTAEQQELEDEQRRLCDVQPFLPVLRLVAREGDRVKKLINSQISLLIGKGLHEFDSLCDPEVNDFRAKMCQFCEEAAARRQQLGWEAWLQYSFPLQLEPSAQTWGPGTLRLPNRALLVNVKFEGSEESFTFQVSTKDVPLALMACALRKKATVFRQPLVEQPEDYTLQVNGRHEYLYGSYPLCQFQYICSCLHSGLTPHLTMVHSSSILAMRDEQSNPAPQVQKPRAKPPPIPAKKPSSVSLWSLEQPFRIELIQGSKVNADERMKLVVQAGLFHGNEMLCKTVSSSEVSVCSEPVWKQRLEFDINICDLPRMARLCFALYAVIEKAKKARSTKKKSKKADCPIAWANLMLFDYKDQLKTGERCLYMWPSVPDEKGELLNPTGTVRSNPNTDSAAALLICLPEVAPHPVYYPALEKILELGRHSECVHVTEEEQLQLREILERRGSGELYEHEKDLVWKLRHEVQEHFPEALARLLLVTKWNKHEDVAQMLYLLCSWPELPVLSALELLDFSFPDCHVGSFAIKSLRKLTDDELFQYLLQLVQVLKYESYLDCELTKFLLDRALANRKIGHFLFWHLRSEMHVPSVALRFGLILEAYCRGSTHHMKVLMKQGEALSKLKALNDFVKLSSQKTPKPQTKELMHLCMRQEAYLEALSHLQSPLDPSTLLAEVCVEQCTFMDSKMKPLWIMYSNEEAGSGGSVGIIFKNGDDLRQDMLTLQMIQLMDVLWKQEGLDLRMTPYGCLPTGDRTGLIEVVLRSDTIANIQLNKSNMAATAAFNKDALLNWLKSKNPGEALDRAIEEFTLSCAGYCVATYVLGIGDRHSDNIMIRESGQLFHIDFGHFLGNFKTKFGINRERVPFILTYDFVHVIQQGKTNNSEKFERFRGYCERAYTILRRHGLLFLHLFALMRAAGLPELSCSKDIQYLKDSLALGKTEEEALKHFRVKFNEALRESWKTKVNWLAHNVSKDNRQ
Sequence (P27986 whole entry partner): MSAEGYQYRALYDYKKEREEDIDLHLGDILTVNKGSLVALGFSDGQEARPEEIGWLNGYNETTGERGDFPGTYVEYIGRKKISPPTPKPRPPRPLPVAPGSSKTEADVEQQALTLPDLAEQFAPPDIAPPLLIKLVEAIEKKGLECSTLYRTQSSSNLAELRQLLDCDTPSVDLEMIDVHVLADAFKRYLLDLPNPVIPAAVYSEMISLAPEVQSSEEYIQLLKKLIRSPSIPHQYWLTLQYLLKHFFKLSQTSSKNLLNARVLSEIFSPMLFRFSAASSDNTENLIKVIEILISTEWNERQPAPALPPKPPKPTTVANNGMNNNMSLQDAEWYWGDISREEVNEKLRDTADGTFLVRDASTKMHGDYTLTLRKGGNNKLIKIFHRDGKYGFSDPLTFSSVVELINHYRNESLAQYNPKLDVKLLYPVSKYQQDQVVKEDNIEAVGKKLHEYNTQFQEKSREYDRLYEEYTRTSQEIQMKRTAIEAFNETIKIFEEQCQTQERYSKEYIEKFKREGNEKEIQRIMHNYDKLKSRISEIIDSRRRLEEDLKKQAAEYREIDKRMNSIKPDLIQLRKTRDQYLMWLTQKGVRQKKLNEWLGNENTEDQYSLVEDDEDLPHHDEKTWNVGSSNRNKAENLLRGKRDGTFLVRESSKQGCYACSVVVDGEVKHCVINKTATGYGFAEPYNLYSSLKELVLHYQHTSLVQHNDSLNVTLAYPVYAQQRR
Give bare numbers, in nM.

compound="COc1ncc(-c2ccc3nccc(-c4ccc(CN(C)C)cc4)c3c2)cc1NS(=O)(=O)c1ccc(F)cc1F [Compound 9]" output_unit=nM recorded_result=3.8

Please state IC50 for every compound in the list that follows.
1. COc1ncc(-c2ccc3nccc(-c4ccc(Cn5cncn5)cc4)c3c2)cc1NS(=O)(=O)c1ccc(F)cc1F [Compound 10]
2. COc1ncc(-c2ccc3nccc(-c4ccc(CN(C)CCO)cc4)c3c2)cc1NS(=O)(=O)c1ccc(F)cc1F [Compound 17]
3. COc1ncc(-c2ccc3nccc(-n4cncn4)c3c2)cc1NS(=O)(=O)c1ccc(F)cc1F [Compound 1]

A:
1. 2.8
2. 3.4
3. 2.6

###

test: In vivo pharmacokinetics in SD rats; settings: male, SD, iv; rat plasma, tail vein injection, 2 mg/kg
property label: Cmax
Enter the number, and then the unit.

Q: Fill in: Cmax of `COc1ncc(-c2ccc3nccc(-c4ccc(CN(C)C)cc4)c3c2)cc1NS(=O)(=O)c1ccc(F)cc1F` is ___
A: 0.999 µg/mL

###

system: U87MG (human brain star glioblastoma); assay: MTT assay, U87MG; format: cell-based; conditions: U-87 MG, 72 h
property label: log10 of IC50 (log10 of the value in µg/mL)
Lab note - IC50 converted to log10 from values in µg/mL.

Worked set:
compound=COc1ncc(-c2ccc3nccc(-c4ccc(CN(CCO)CCO)cc4)c3c2)cc1NS(=O)(=O)c1ccc(F)cc1F property_label="log10 of IC50" recorded_result=-1.05
compound=COc1ncc(-c2ccc3nccc(-c4ccc(CN(C)C)cc4)c3c2)cc1NS(=O)(=O)c1ccc(F)cc1F property_label="log10 of IC50" recorded_result=-1.29
compound=COc1ncc(-c2ccc3nccc(-c4ccc(CN(C)CCO)cc4)c3c2)cc1NS(=O)(=O)c1ccc(F)cc1F property_label="log10 of IC50" recorded_result=-1.04
compound=COc1ncc(-c2ccc3nccc(-c4ccc(CN(C)CCN(C)C)cc4)c3c2)cc1NS(=O)(=O)c1ccc(F)cc1F property_label="log10 of IC50" recorded_result=-0.80
compound=COc1ncc(-c2ccc3nccc(-c4ccc(CN5CCN(C(C)C)CC5)cc4)c3c2)cc1NS(=O)(=O)c1ccc(F)cc1F property_label="log10 of IC50" recorded_result=-0.52

Report log10 of IC50 for every entry below.
1. COc1ncc(-c2ccc3nccc(-c4ccc(Cn5ccnc5)cc4)c3c2)cc1NS(=O)(=O)c1ccc(F)cc1F
2. COC(=O)c1ccc(-c2ccnc3ccc(-c4cnc(OC)c(NS(=O)(=O)c5ccc(F)cc5F)c4)cc23)cc1
3. COc1ncc(-c2ccc3nccc(-c4ccc(C)cc4)c3c2)cc1NS(=O)(=O)c1ccc(F)cc1F
4. COc1ncc(-c2ccc3nccc(-c4ccc(CN5CCOCC5)cc4)c3c2)cc1NS(=O)(=O)c1ccc(F)cc1F

A:
[-0.46, 0.59, 1.54, -1.04]

// for each compound below, give its log10 of IC50
1. COc1cccc2c1C(=O)c1c(O)c3c(c(O)c1C2=O)C[C@@](O)(C(=O)CO)C[C@@H]3O[C@H]1C[C@H](N)[C@H](O)[C@H](C)O1 [DOX, Doxorubicin, reference compound]
2. COc1ncc(-c2ccc3nccc(-c4ccc(CN5CCCCC5)cc4)c3c2)cc1NS(=O)(=O)c1ccc(F)cc1F
3. COc1ncc(-c2ccc3nccc(-c4ccc(CN5CCN(C)CC5)cc4)c3c2)cc1NS(=O)(=O)c1ccc(F)cc1F
4. CCOC(=O)c1ccc(-c2ccnc3ccc(-c4cnc(OC)c(NS(=O)(=O)c5ccc(F)cc5F)c4)cc23)cc1
5. COc1ncc(-c2ccc3nccc(-c4ccc(CN5CCN(CCO)CC5)cc4)c3c2)cc1NS(=O)(=O)c1ccc(F)cc1F
6. COc1ncc(-c2ccc3nccc(-c4ccc(CN5CCCC5)cc4)c3c2)cc1NS(=O)(=O)c1ccc(F)cc1F
7. COc1ncc(-c2ccc3nccc(-c4ccnnc4)c3c2)cc1NS(=O)(=O)c1ccc(F)cc1F [GSK2126458, reference compound]

A:
1: -0.27; 2: -1.72; 3: -0.68; 4: 1.07; 5: -0.86; 6: -1.03; 7: -0.27

Go through the items and report each one's log10 of IC50.
1. COc1ncc(-c2ccc3nccc(-c4ccc(Cn5cccn5)cc4)c3c2)cc1NS(=O)(=O)c1ccc(F)cc1F
2. COc1ncc(-c2ccc3nccc(-c4ccc(C(=O)N5CCCC5)cc4)c3c2)cc1NS(=O)(=O)c1ccc(F)cc1F

A:
[-0.03, -0.55]
